Test system: SEM cells
Assay: cell viability relative to DMSO control; higher = less cytotoxic
Conditions: RPMI 5 mM glucose + 10% FBS; 48 h; 5.12 µM
Threshold-based label: cell viability under 40% gives Condition met, cell viability not under 40% gives Condition not met.

// known answers, use as guide
CC(C)(C)[C@H](NC(=O)c1ccc(N)c(Cl)c1)C(=O)N1CCC[C@H]1C(=O)N[C@H](C#N)CC(=O)O
Condition not met
C=CCc1ccc(O)c(-c2ccc(O)c(CC=C)c2)c1
Condition met
NC(=O)NO
Condition met
Nc1ncnc2c1nc(Cl)n2[C@@H]1O[C@H](CO)[C@@H](O)[C@H]1O
Condition not met
O=C(Nc1cccnn1)N1CCC(=Cc2cccc(Oc3ccc(C(F)(F)F)cn3)c2)CC1
Condition not met

Does `CC(C)C[C@H](NC(=O)[C@@H](O)[C@H](N)Cc1ccccc1)C(=O)O` have cell viability strictly under 40%?
Condition not met

Does `COc1cc(CNC(=O)CCCC/C=C/C(C)C)ccc1O` have cell viability strictly under 40%?
Condition met

Does `COc1ccc2cc1Oc1ccc(cc1)C[C@H]1c3cc(c(OC)cc3CCN1C)Oc1c(OC)c(OC)cc3c1[C@H](C2)N(C)CC3` have cell viability strictly under 40%?
Condition not met

Does `C[C@H]1COC/2=C1/C(=O)C(=O)C3=C4CCCC(C)(C)C4=CC=C23` have cell viability strictly under 40%?
Condition not met

====

Give measured cell viability for each item. Keep answers brief.
Test system: NOMO1
Experiment: cell viability relative to DMSO control; higher = less cytotoxic
Conditions: HPLM + 10% dialyzed FBS; 48 h; 5.12 µM
One number for each entry, in %.

Answered examples (5):
CN(C)CCN1C(=O)c2cccc3cc(N)cc(c23)C1=O
93.7
CC1(C)C(N(O)C(=O)Nc2ccc(Cl)cc2)N(c2ccc(Cl)cc2)C(=O)N1CC(=O)N/N=C/C=C/c1ccc([N+](=O)[O-])o1 (stereo not given)
108
C[C@H]1O[C@H](C[C@H](O)[C@@H]1O)O[C@H]2[C@@H](O)C[C@@H](O[C@@H]2C)O[C@H]3[C@@H](O)C[C@@H](O[C@@H]3C)O[C@H]4CC[C@@]5(C)[C@H](CC[C@@H]6[C@@H]5C[C@@H](O)[C@]7(C)[C@H](CC[C@]67O)C/8=C/C(=O)OC8)C4
8.1
CC(O)C1C2C(C)\C(=C(/N2C1=O)C(O)=O)SC3CNC(C3)C(=O)N(C)C (stereo not given)
82.8
COC1=CC=C(C=C1O)C/2=C/C(=O)C3=C(O2)C=C(O[C@@H]4O[C@H](CO[C@@H]5O[C@@H](C)[C@H](O)[C@@H](O)[C@H]5O)[C@@H](O)[C@H](O)[C@H]4O)C=C3O
117

I'm hoping you can list cell viability for every compound here, please.
1. O=C1NC(=O)/C(=C/c2ccc(-c3ccc(F)cc3O)o2)S1
2. OCCn1cc(-c2cnc3nnn(Cc4ccc5ncccc5c4)c3n2)cn1
3. CN1CCN(C(=O)O[C@H]2c3nccnc3C(=O)N2c2ccc(Cl)cn2)CC1

1. 103
2. 92.1
3. 91.1

I'm hoping you can list cell viability for every compound here, please.
1. C[C@](N)(Cc1ccc(O)c(O)c1)C(=O)O
2. Nc1ncnc2c1c(-c1cccc(OCc3ccccc3)c1)cn2C1CC(CN2CCCC2)C1 (stereo not given)

92.9
94.2

The origin of these recorded values is the supplement of paper PMC11451515.
